Numbers sourced from PubChem BioAssay AID2320.

Procedure Details: A qHTS for Small Molecule Inhibitors of Shiga Toxin (Confirmatory); note: nearly all actives have a fitted effect of over 75% in size
Assay Conditions: Cell-based Shiga toxin protection reporter assay; series mostly up to 38.3 µM
Results filed as inconclusive are left out. Activity calls are given as the source filed them. Calls come from the whole dose curve.
Give your call using only these classes: 1 for active, 0 for inactive

// below: answered compounds
>  <Compound>
CN(C)C(CNC(=O)CCC(=O)c1ccc(Br)cc1)c1ccccc1 (stereo unspecified)

>  <Label Class>
0

$$$$
>  <Compound>
CCN(CC)CC(=O)Nc1ccc(-c2nc3cc(NC(=O)CN(CC)CC)ccc3o2)cc1

>  <Label Class>
0

$$$$

For this compound, state the assay outcome: Cc1cc(C(=O)COC(=O)c2cccn2C)c(C)n1Cc1ccco1
1

Given CCCCc1ccc(NS(=O)(=O)N(C)C)cc1 , state the outcome it received in this test.
0

Recorded test call requested for Cc1ccc(NC(=O)C(C)N=C2NS(=O)(=O)c3ccccc32)cc1 (stereo unspecified)
1

Query: recorded result category for O=C(NCCCO)/C(=C\c1ccco1)NC(=O)c1ccco1 in this test
0

Record lookup: outcome of this test for Cc1ccc(OCC(=O)NNC(=O)CCC(=O)Nc2ccc(C)cc2C)cc1 ?
0

Per the records of this test, what outcome belongs to O=C(Nc1ccc(Cl)cc1)C1CCN(C(=O)c2cccs2)CC1 ?
0

Could you kindly confirm the outcome this assay logged for CC(=O)c1cccc(NC(=O)c2ccc(NC(=O)CCS(=O)(=O)c3cccs3)cc2)c1 ?
0

Test call for this compound, please: O=C(Nc1ccc(/C=C/c2nc3ccccc3o2)cc1)c1ccc(F)cc1
1

Please state the recorded outcome for this compound: NNC(=O)c1ccc(NS(=O)(=O)c2ccc(Br)cc2)cc1
0
